Molecular target: T1, human CDH6 on tumor cells (OVCAR3 cells, PA-1 cells) (human, UniProt P55285 54-790)
T1 sequence: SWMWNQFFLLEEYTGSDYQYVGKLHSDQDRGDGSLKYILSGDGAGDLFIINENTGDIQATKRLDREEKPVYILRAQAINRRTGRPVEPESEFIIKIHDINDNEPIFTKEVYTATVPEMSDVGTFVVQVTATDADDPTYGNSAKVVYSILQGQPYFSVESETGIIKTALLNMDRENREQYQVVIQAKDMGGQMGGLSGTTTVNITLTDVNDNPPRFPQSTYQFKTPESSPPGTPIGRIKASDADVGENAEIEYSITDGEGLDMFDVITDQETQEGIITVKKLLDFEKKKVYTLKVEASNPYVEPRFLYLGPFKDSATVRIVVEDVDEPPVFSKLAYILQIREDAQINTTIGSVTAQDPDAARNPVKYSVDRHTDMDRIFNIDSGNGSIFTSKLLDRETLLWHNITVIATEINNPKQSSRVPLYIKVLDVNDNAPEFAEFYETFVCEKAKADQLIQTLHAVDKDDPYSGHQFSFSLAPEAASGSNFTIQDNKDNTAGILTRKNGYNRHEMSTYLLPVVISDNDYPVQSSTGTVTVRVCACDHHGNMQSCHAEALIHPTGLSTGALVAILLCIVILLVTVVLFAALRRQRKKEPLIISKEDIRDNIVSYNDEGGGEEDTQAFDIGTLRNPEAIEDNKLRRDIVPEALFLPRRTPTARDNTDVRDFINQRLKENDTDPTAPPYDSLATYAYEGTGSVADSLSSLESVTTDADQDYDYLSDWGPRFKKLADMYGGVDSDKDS
Experiment: FACS, OVCAR3 cells
quantity: EC50 (nM)
Numbers only, in nM.

## Input Look up EC50: CHI-CDH6-10 (antibody, human IgG1, kappa, V domains shown, also called chimeric antibody of murine CDH6-10) VH: QVQLQQPGAELVKPGTSVKMSCKASGYTFTSDWIAWVKQRPGQGLEWIGDIYPGSGRTHNNEKFNFKATLTVDTSSNTAYMQLSSLTSEDSAVYFCARPMLGRFDYWGQGTTLTVSS VL: DIVLTQSPASLAVSLGQRATISCRASESVSIHGTHLMHWYQQKPGQPPKLLIYAASNLESGVPARFSGSGSETDFTLNIHPVEEEDAATYFCQQSFEDPFTFGSGTKLEIKR
## Output 0.2

## Input Also check CHI-CDH6-3 (antibody, human IgG1, kappa, V domains shown, also called CH1-CDH6-3; chimeric antibody of murine CDH6-3) VH: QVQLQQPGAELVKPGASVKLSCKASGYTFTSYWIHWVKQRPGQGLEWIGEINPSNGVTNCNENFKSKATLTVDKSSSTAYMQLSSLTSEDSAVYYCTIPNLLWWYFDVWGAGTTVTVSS VL: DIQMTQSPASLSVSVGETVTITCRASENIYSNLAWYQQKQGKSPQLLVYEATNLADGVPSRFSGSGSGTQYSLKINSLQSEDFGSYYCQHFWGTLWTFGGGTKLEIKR
## Output 1.16

## Input Similarly, CHI-CDH6-12 (antibody, human IgG1, kappa, V domains shown, also called CH1-CDH6-12; chimeric antibody of murine CDH6-12) VH: EVNLVESGGGLVQPGDSLTLSCSASGFTFTDYYMSWVRQFPGKALEWLALIRNKANSYTTEYSASVKGRFTISRDNSQSILYLQMNALRAEDSATYYCARDSYYSHDGFAYWGQGTLVTVSA VL: DIVLTQSPASLAVSLGQRATISCRASKSVSTSSYTYMHWYQQKPGQPPKLLIKFASYLESGVPARFSGSGSGTDFTLNIHPVEEEDAATYYCQHSREFPFTFGTGTKLEIKR ?
## Output 2.22

Please supply EC50 for each of the following items, keeping them in order.
1. CHI-CDH6-11 (antibody, human IgG1, kappa, V domains shown, also called chimeric antibody of murine CDH6-11) VH: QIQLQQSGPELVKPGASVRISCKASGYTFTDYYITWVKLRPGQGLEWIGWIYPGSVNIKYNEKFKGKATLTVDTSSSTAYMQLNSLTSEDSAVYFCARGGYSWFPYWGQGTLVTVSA VL: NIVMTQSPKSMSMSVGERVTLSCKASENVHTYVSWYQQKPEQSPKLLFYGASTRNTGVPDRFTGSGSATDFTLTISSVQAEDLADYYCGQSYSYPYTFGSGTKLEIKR
2. CHI-CDH6-6 (antibody, human IgG1, kappa, V domains shown, also called CHI-hCDH6-6; chimeric antibody of murine CDH6-6) VH: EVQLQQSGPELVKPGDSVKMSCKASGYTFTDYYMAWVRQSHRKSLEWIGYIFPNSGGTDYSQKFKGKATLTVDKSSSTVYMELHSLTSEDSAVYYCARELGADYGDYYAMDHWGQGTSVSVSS VL: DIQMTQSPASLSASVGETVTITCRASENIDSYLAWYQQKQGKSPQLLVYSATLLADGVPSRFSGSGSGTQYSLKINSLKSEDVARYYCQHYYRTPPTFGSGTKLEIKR

## Output
[2.14, 0.67]
